# protocol.description: Solubility of mangiferin in deionised water
# Format: physicochemical
# recorded.conditions: thermodynamic from solid; deionised water, 40° C., 500 rpm, stirring time 24 hours
metric: solubility at 24 h (µg/mL)
One number for each entry, in µg/mL.

Please indicate solubility at 24 h recorded for O=c1c2cc(O)c(O)cc2oc2cc(O)c(C3OC(CO)C(O)C(O)C3O)c(O)c12 (stereo not shown)
139
